Consider the following molecules; for each one, report its Ki.
# assay-target: human recombinant bradykinin B1 receptor (Homo sapiens)
# Construct: host or cells: CHO cells, clone hB1-A5
# Sequence (P46663 whole entry): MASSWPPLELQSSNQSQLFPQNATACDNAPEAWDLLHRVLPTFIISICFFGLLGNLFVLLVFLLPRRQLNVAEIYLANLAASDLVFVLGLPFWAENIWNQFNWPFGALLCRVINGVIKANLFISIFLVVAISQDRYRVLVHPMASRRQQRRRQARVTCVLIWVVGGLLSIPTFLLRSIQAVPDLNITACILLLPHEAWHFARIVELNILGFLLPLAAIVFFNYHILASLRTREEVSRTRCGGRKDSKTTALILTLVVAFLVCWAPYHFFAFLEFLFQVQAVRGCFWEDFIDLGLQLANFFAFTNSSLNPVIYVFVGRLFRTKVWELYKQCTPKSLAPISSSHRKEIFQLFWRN
# assay-protocol: Human recombinant bradykinin B1 receptor competitive radioligand binding
# run-conditions: hB1 expressed in CHO cells, [3H]-[Des-Arg10] Kallidin radioligand; read-out: B1 binding
# Procedure: Assessment of Ligand Binding Affinity to B1 and B2 Receptors In Vitro by Competitive Radioligand Binding Assay Binding assays were carried out on human recombinant bradykinin) receptors (expressed in CHO cells, hB1-A5) according to the Euroscreen Technical Data Sheet (Cat.No.:ES-091). […] Non specific binding was determined in the presence of 10 μM Lys-des-Arg^9-Bradykinin. […] Radioactivity was determined by liquid scintillation spectroscopy. […]

In: Need Ki of COc1cc(C(=O)NC2(C(=O)N[C@H](C)c3ccc(-n4c(-c5noc(C)n5)c(Cl)c5ccccc54)cc3)CC2)on1 [Example 41] , thanks.
Out: < 20 nM

In: Entry Cn1nnnc1-c1c(Cl)c2ccccc2n1-c1ccc(CNC(=O)C2(NC(=O)C(F)(F)F)CC2)cc1 [Example 8] : reported Ki = ?
Out: < 20 nM

In: Can you look up the measured Ki of CC(NC(=O)C1(NC(=O)C(F)(F)F)CC1)c1ccc(-n2c(C(=O)N3CCCC3)c(Cl)c3ccccc32)cc1 (stereo not shown) [Example 33] for me?
Out: 20 to 100 nM

In: // Ki lookup, key: CC(=O)NC(CO)C(=O)NC1(C(=O)NCc2ccc(-n3c(-c4noc(C)n4)c(Cl)c4ccccc43)cc2)CC1 (stereo not shown) [Example 151]
Out: 100 to 500 nM

In: Ki lookup needed for Cc1cc(C(=O)NC2(C(=O)NCc3ccc(-n4c(-c5nnn(C)n5)c(Cl)c5ccccc54)cc3)CC2)no1 [Example 26] , thanks.
Out: < 20 nM

In: What value of measured Ki is listed for Cc1nc(-c2c(Cl)c3ccccc3n2-c2ccc(CNC(=O)C3(NC(=O)c4ccncc4F)CC3)cc2)no1 [Example 97] ?
Out: < 20 nM

In: Ki lookup needed for Cc1nc(-c2c(Cl)c3ccccc3n2-c2ccc(CNC(=O)C3(NC(=O)c4cc(C(F)(F)F)ccc4F)CC3)cc2)no1 [Example 96] , thanks.
Out: < 20 nM

###

# assay-target: recombinant human B1 receptors (Homo sapiens, UniProt P46663)
# Construct: host or cells: CHO (CHO-B1)
# Sequence (P46663 whole entry): as above
# assay-protocol: Functional assay: antagonist potency by cytosolic calcium measurement (plate reader fluorimeter) in CHO-B1 cells, agonist LysDABK
# Format: cell-based
# run-conditions: CHO-B1 cells, inhibition of LysDABK (EC80)-evoked [Ca2+]i elevation; read-out: B1 func.
readout: IC50

In: IC50 of Cc1nc(-c2cc3ccccc3n2-c2ccc(CNC(=O)C3(NC(=O)c4cncc(C(F)(F)F)c4)CC3)cc2)no1 on recombinant human B1 receptors (Homo sapiens, UniProt P46663)?
Out: < 20 nM

In: State its IC50 on recombinant human B1 receptors (Homo sapiens, UniProt P46663): Cc1nc(-c2c(Cl)c3ccccc3n2-c2ccc(CNC(=O)C3(NC(=O)c4ccsc4)CC3)cc2)no1
Out: 20 to 100 nM

In: Short answer please: IC50, recombinant human B1 receptors (Homo sapiens, UniProt P46663), entry COc1cc(C(=O)NC2(C(=O)NCc3ccc(-n4c(-c5nnn(C)n5)cc5ccccc54)cc3)CC2)on1
Out: < 20 nM

In: What measured IC50 is associated with Cc1nc(-c2c(Cl)c3cc(F)ccc3n2-c2ccc(CNC(=O)C3(NC(=O)c4cccnc4F)CC3)cc2)no1 on recombinant human B1 receptors (Homo sapiens, UniProt P46663)?
Out: < 20 nM
